target: HLA-A*02:01 (Homo sapiens, UniProt P04439, D140Y/D185E/D98H/E176V/E277Q/G131W/G231S/I119V/I121R/I166T/I218V/L300P/L318F/N151K/N90K/P208A/P217A/Q86G/Q94H/R138H/R169H/T345S); assay: MHC binding assay (UV-ligand exchange, beta2m ELISA, peptide exchange yield); settings: binding to HLA-A*02:01 ranged by peptide exchange yield, β2m ELISA
endpoint label: Peptide exchange (MHC class I binding score)

Example results:
>  <substance>
18 (YVLDLAAKV; listed as Homo sapiens) [compound 18]

>  <readout value>
+++ (≥50 = +++)

$$$$
>  <substance>
85 (FVMSEIRTV; listed as Homo sapiens) [compound 85]

>  <readout value>
+++ (≥50 = +++)

$$$$
>  <substance>
66 (TLLKTIIKV; listed as Homo sapiens) [compound 66]

>  <readout value>
++ (≥20% = ++)

$$$$
>  <substance>
9 (ILLQKPDSV; listed as Homo sapiens) [compound 9]

>  <readout value>
++ (≥20% = ++)

$$$$

Moving on to another substance below.
Short answer for 104 (ALFEGVVRQI; listed as Homo sapiens) [compound 104] : Peptide exchange (MHC class I binding score) was +++ (≥50 = +++)

Data origin: patent US12059458B2
